Exercise: for every item that follows, state its recorded logP.

Provide each entry's logP from the list below.
1. CCCCOC(=O)C(C)c1ccc(CC(C)C)cc1 (stereo not given)
2. CCC(C)OC(=O)C(C)c1ccc(CC(C)C)cc1 (stereo not given)
3. CCCOC(=O)C(C)c1ccc(CC(C)C)cc1 (stereo not given)

3.13
3.06
2.88

Provide each entry's logP from the list below.
1. CC(C)Cc1ccc(C(C)C(=O)OC(C)C)cc1 (stereo not given)
2. CC(C)Cc1ccc(C(C)C(=O)OC(C)(C)C)cc1 (stereo not given)

2.3
2.37

----------
- test_details: method code SF-AS, from PMID: 8047542
Record class 1 whenever logP is at 3 or higher; record class 0 when lower.

Below are worked cases with known answers.
Evaluate CCCCCOC(=O)C(C)c1ccc(CC(C)C)cc1 (configuration not stated) : logP at minimum 3?
class 1

Evaluate CC(C)COC(=O)C(C)c1ccc(CC(C)C)cc1 (configuration not stated) : logP at minimum 3?
class 0

Evaluate CCCCCCOC(=O)C(C)c1ccc(CC(C)C)cc1 (configuration not stated) : logP at minimum 3?
class 1

Evaluate CCCCCCCCCCCCCCCCOC(=O)C(C)c1ccc(CC(C)C)cc1 (configuration not stated) : logP at minimum 3?
class 1

Note: attention shifts to another entry.
Evaluate CCCCCCCOC(=O)C(C)c1ccc(CC(C)C)cc1 (configuration not stated) : logP at minimum 3?
class 1
